# target_under_test: ERα (Homo sapiens (Human), UniProt P03372)
# Sequence (P03372 whole entry): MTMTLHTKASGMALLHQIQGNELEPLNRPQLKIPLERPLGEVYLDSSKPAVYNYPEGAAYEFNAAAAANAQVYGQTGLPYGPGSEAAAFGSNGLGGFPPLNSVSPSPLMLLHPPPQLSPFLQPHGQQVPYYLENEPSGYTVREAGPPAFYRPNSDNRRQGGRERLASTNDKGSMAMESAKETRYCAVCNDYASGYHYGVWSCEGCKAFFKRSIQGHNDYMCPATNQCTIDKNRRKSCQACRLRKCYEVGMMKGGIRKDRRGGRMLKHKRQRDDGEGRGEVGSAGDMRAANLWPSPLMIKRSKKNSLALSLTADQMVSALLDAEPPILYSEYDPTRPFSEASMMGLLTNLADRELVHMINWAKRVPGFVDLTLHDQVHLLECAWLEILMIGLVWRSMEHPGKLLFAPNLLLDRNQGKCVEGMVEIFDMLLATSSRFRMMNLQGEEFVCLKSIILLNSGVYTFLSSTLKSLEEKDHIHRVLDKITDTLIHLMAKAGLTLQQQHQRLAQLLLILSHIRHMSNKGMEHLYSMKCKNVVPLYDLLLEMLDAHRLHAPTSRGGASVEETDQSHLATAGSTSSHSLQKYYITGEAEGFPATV
# assay_name: ERα degradation (MCF7 cells), in-cell Western
# Type: cell-based
# assay_setup: remaining ERα protein at 10 μM ligand, MCF7 cells, relative to DMSO control
Let's look at some molecules and their measured % ERα remaining.
Provide the reading as a plain figure in %.

# smiles_str, % ERα remaining, %
records = [
    ("Cn1nnc(/C=C/c2ccc(Oc3c(-c4ccc(O)cc4)sc4cc(O)ccc34)cc2)n1", 33),
    ("Cc1ncccc1-c1sc2cc(O)ccc2c1Oc1ccc(/C=C/C(=O)O)cc1", 12),
    ("CCOC(=O)/C=C/c1ccc(Oc2c(-c3ccc(O)cc3)sc3cc(O)ccc23)cc1OC", 41),
]

We now examine a further molecule.
Q. Can you look up the measured % ERα remaining of "COC(=O)/C=C/c1ccc(Oc2c(-c3ccc(O)c(C)c3)sc3cc(O)ccc23)cc1" for me?
A. 32
